Experiment: Circular dichroism secondary structure (Dichroweb), peptide only
Assay type: physicochemical
Conditions: 20 °C
As shown below, each of these substances has a reported Peptide-only, Strand value.
The reply should be a number in %, with the unit left off.

Below are worked cases with known answers.
{"substance": "H-GLLDAAKLLAKAAGW-NH2 [Peptide 24F1]", "unit text": "%", "readout value": 14}
{"substance": "H-GLLDLLKLLLKLAGW-NH2 [Peptide 28H6]", "unit text": "%", "readout value": 4}

Query: Which Peptide-only, Strand value is on record for H-GLLDLPKALAKALGW-NH2 [Peptide 7G6] ?
Result: 10

----------
Test: Circular dichroism secondary structure (Dichroweb), with POPC
Format: physicochemical
Settings: 70 °C
Procedure: Dichroweb software analyzes the secondary structure of LDKA peptides from circular dichroism spectroscope. The table presents the percentage of each helix and strand structure at different temperature. The data are analyzed using CONTIN-LL method and Reference Set 4 (Optimised for 190-240 nm). Peptide solutions (peptide concentration is 50 μM) were titrated with POPC and POPG LUVs (50, 100, 250, 500, 1000 μM) and the corresponding changes CD spectra collected. […]
No end group written: not given here.
As shown below, each of these substances has a reported Peptide-POPC, Helix value.
The reply should be a number in %, with the unit left off.

Below are worked cases with known answers.
{"substance": "H-GLADLAKLLLKLLGW-NH2 [Peptide 7F3]", "measured attribute": "Peptide-POPC, Helix", "readout value": 76}
{"substance": "H-GLDDLLKALLKAAGW-NH2 [Peptide 4H9]", "measured attribute": "Peptide-POPC, Helix", "readout value": 66}
{"substance": "H-GLDDLAKLLLKLAGW-NH2 [Peptide 25B2]", "measured attribute": "Peptide-POPC, Helix", "readout value": 81}
{"substance": "H-GLLDLLKLLLKLAGW-NH2 [Peptide 28H6]", "measured attribute": "Peptide-POPC, Helix", "readout value": 68}
{"substance": "GLLDDAKLLAKLAGW-AMIDE (GLLDDAKLLAKLAGW-NH2) [Peptide 7D12]", "measured attribute": "Peptide-POPC, Helix", "readout value": 27}
{"substance": "H-GLLDLLHLLLKAAGW-NH2 [Peptide K7H]", "measured attribute": "Peptide-POPC, Helix", "readout value": 80}
{"substance": "H-GLLDLPKALAKALGW-NH2 [Peptide 7G6]", "measured attribute": "Peptide-POPC, Helix", "readout value": 47}
{"substance": "H-GLADAAKLLLKAAGW-NH2 [Peptide 11D12]", "measured attribute": "Peptide-POPC, Helix", "readout value": 39}

Now consider a different substance.
Query: Which Peptide-POPC, Helix value is on record for H-GLLDAAKLLAKAAGW-NH2 [Peptide 24F1] ?
Result: 27

Where do the numbers come from? From patent US11059855B2.
